# Tmax per entry
assay: Tmax in Sprague-Dawley rat at 10 mg/kg, po; assay type: ADME, organism-based; parameters: dose 10 mg/kg, route oral; settings: in vivo
Write down the numeric answer in h and omit the unit.

# annotated cases, reported Tmax shown
smiles	measured
CN1CCc2cc(Cl)c(O)cc2[C@H]2c3cccc(-c4cccs4)c3CC[C@@H]21	2
COc1ccc(-c2cccc3c2CC[C@H]2[C@H]3c3cc(O)c(Cl)cc3CCN2C)cc1	2

Could you now look at the following molecule, please?
Q: Any idea what Tmax was measured for CN1CCc2cc(Cl)c(O)cc2[C@H]2c3cccc(-c4ccncc4)c3CC[C@@H]21 ?
A: 0.5

----------
biological target: D(1A) dopamine receptor (Homo sapiens, UniProt P21728); assay: Displacement of [3H]SCh23390 from dopamine D1 receptor expressed in mouse LTK cells by scintillation counting
Sequence (P21728 whole entry): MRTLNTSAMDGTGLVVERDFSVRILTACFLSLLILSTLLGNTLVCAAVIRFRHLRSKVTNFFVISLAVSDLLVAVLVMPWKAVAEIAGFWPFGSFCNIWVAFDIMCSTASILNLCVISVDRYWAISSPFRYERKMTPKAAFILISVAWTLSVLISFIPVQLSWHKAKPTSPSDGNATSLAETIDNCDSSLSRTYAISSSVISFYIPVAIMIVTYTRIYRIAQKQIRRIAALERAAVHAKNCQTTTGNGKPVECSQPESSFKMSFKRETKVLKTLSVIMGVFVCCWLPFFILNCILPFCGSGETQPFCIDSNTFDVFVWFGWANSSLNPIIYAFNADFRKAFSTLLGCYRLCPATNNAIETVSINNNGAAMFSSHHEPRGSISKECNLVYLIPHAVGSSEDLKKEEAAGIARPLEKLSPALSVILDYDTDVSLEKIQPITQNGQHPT
Listing of recorded Ki by entry.
// return numeric value only (unit: nM, not printed)

smiles	tested-system	unit	Ki
CN1CCc2cc(Cl)c(O)cc2[C@H]2c3cccc(-c4ccc5[nH]ccc5c4)c3CC[C@@H]21	D(1A) dopamine receptor (Homo sapiens, UniProt P21728)	nM	0.6
CN1CCc2cc(Cl)c(O)cc2[C@H]2c3cccc(-c4cc(F)cc(F)c4)c3CC[C@@H]21	D(1A) dopamine receptor (Homo sapiens, UniProt P21728)	nM	0.9
CN(C)c1ccc(-c2cccc3c2CC[C@H]2[C@H]3c3cc(O)c(Cl)cc3CCN2C)cc1	D(1A) dopamine receptor (Homo sapiens, UniProt P21728)	nM	0.7
CN1CCc2cc(Cl)c(O)cc2[C@H]2c3cccc(/C=N/Oc4ccccc4)c3CC[C@@H]21	D(1A) dopamine receptor (Homo sapiens, UniProt P21728)	nM	1

Next item in the queue.
Q: So what does the record say about Ki for CN1CCc2cc(Cl)c(O)cc2[C@H]2c3cccc(CO)c3CC[C@@H]21 ?
A: 2

----------
Below: a set of entries, each annotated with reported Ki.
target: D(2) dopamine receptor (Homo sapiens, UniProt P14416); test: Displacement of [3H]methylspiperon from dopamine D2 receptor expressed in mouse LTK cells by scintillation counting
Sequence (P14416 whole entry): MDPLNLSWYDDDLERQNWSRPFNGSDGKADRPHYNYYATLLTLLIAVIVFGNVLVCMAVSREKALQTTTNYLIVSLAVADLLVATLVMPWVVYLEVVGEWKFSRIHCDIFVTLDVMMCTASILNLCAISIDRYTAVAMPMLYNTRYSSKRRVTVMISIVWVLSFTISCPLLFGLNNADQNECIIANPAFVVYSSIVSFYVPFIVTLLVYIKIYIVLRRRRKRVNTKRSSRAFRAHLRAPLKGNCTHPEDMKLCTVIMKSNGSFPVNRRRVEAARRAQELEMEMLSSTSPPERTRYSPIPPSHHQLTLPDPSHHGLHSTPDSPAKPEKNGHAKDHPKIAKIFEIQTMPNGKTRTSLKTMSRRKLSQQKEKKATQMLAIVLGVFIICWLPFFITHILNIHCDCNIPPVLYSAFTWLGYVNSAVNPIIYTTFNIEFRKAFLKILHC
Numeric answer only, unit nM assumed.

// worked examples, Ki included
smiles	tested-system	Ki [nM]
COC(=O)c1cccc2c1CC[C@H]1[C@H]2c2cc(O)c(Cl)cc2CCN1C	D(2) dopamine receptor (Homo sapiens, UniProt P14416)	923
CN1CCc2cc(Cl)c(O)cc2[C@H]2c3cccc(-c4cccc(OC(F)(F)F)c4)c3CC[C@H]21	D(2) dopamine receptor (Homo sapiens, UniProt P14416)	1610
CN1CCc2cc(Cl)c(O)cc2[C@H]2c3cccc(/C=N/Oc4ccccc4)c3CC[C@@H]21	D(2) dopamine receptor (Homo sapiens, UniProt P14416)	124
CN1CCc2cc(Cl)c(O)cc2[C@H]2c3cccc(-c4cccs4)c3CC[C@@H]21	D(2) dopamine receptor (Homo sapiens, UniProt P14416)	93
CN1CCc2cc(Cl)c(O)cc2[C@H]2c3cccc(C=O)c3CC[C@@H]21	D(2) dopamine receptor (Homo sapiens, UniProt P14416)	1370
CN1CCc2cc(Cl)c(O)cc2[C@H]2c3cccc(-c4cccc(F)c4)c3CC[C@@H]21	D(2) dopamine receptor (Homo sapiens, UniProt P14416)	223
CN1CCc2cc(Cl)c(O)cc2[C@H]2c3cccc(CO)c3CC[C@@H]21	D(2) dopamine receptor (Homo sapiens, UniProt P14416)	1650
CN1CCc2cc(Cl)c(O)cc2[C@H]2c3cccc(-c4cccc([N+](=O)[O-])c4)c3CC[C@@H]21	D(2) dopamine receptor (Homo sapiens, UniProt P14416)	618
CN1CCc2cc(Cl)c(O)cc2[C@H]2c3cccc(-c4ccncc4)c3CC[C@@H]21	D(2) dopamine receptor (Homo sapiens, UniProt P14416)	756
CN1CCc2cc(Cl)c(O)cc2[C@H]2c3cccc(-c4cc(F)cc(F)c4)c3CC[C@@H]21	D(2) dopamine receptor (Homo sapiens, UniProt P14416)	312

Q: # get_value(readout= Ki, system= D(2) dopamine receptor (Homo sapiens, UniProt P14416)) for CN1CCc2cc(Cl)c(O)cc2[C@H]2c3cccc(-c4cccc(C#N)c4)c3CC[C@@H]21
A: 584

Q: Give D(2) dopamine receptor (Homo sapiens, UniProt P14416) Ki for CN1CCc2cc(Cl)c(O)cc2[C@H]2c3cccc(/C=N/O)c3CC[C@@H]21
A: 882

Q: Please tell me: Ki of CN(C)c1ccc(-c2cccc3c2CC[C@H]2[C@H]3c3cc(O)c(Cl)cc3CCN2C)cc1 , system D(2) dopamine receptor (Homo sapiens, UniProt P14416)?
A: 12

Q: Observed Ki on D(2) dopamine receptor (Homo sapiens, UniProt P14416) for CN1CCc2cc(Cl)c(O)cc2[C@H]2c3cccc(N4CCCC4=O)c3CC[C@@H]21 , please.
A: 1370

Q: Lab note: need Ki with D(2) dopamine receptor (Homo sapiens, UniProt P14416) for entry CCO/N=C/c1cccc2c1CC[C@H]1[C@H]2c2cc(O)c(Cl)cc2CCN1C , please look it up.
A: 217

Q: Missing value: Ki, D(2) dopamine receptor (Homo sapiens, UniProt P14416), entry CN1CCc2cc(Cl)c(O)cc2[C@H]2c3cccc(C#N)c3CC[C@@H]21 . Fill in?
A: 1330

Q: Item CN1CCc2cc(Cl)c(O)cc2[C@H]2c3cccc(Br)c3CC[C@@H]21 with D(2) dopamine receptor (Homo sapiens, UniProt P14416) - Ki?
A: 1690

Q: Missing value: Ki, D(2) dopamine receptor (Homo sapiens, UniProt P14416), entry CN1CCc2cc(Cl)c(O)cc2[C@H]2c3cccc(C(=O)O)c3CC[C@@H]21 . Fill in?
A: 420

Q: Which measured Ki belongs to CN1CCc2cc(Cl)c(O)cc2[C@H]2c3cccc(O)c3CC[C@@H]21 , tested on D(2) dopamine receptor (Homo sapiens, UniProt P14416)?
A: 440

----------
target: D(1A) dopamine receptor (Homo sapiens); experiment: Displacement of [3H]SCh23390 from dopamine D1 receptor expressed in mouse LTK cells by scintillation counting
result-type: pKi
pKi is a log-scale quantity: -log10 of the concentration expressed in molar.

Solved cases below.
smiles	pKi
COC(=O)c1cccc2c1CC[C@H]1[C@H]2c2cc(O)c(Cl)cc2CCN1C	8.64
CN1CCc2cc(Cl)c(O)cc2[C@H]2c3cccc(N4CCCC4=O)c3CC[C@@H]21	8.51

Q: Look up pKi for this molecule: CN1CCc2cc(Cl)c(O)cc2[C@H]2c3cccc(-c4cccc(OC(F)(F)F)c4)c3CC[C@H]21
A: 8.64

Q: Suppose we examine the molecule CN1CCc2cc(Cl)c(O)cc2[C@H]2c3cccc(-c4ccc(CO)cc4)c3CC[C@@H]21 ; what pKi value has been reported?
A: 9.15

----------
target: D(2) dopamine receptor (Homo sapiens, UniProt P14416); experiment: Displacement of [3H]methylspiperon from dopamine D2 receptor expressed in mouse LTK cells by scintillation counting
Cut-off 80 nM on Ki: below means true, at or above means false.

Some solved cases for reference:
smiles	assigned-label
CN1CCc2cc(Cl)c(O)cc2[C@H]2c3cccc(-c4ccc(CO)cc4)c3CC[C@@H]21	false
CN1CCc2cc(Cl)c(O)cc2[C@H]2c3cccc(/C=N/OCc4ccccc4)c3CC[C@@H]21	true
CO/N=C/c1cccc2c1CC[C@H]1[C@H]2c2cc(O)c(Cl)cc2CCN1C	false
COc1ccc(-c2cccc3c2CC[C@H]2[C@H]3c3cc(O)c(Cl)cc3CCN2C)cc1	false

Now for a further compound.
Q: # check: Ki < 80 nM for CN1CCc2cc(Cl)c(O)cc2[C@H]2c3cccc(-c4ccc5[nH]ccc5c4)c3CC[C@@H]21
A: true

----------
experiment: Cmax in Sprague-Dawley rat at 10 mg/kg, po; type: ADME, organism-based; design: dose 10 mg/kg, route oral; settings: in vivo
Each record here notes measured Cmax.
Give just the number in ng/mL; leave the unit off.

As a guide, the following entries are already answered.
smiles	Cmax / ng/mL
COc1ccc(-c2cccc3c2CC[C@H]2[C@H]3c3cc(O)c(Cl)cc3CCN2C)cc1	18
CN1CCc2cc(Cl)c(O)cc2[C@H]2c3cccc(-c4cccs4)c3CC[C@@H]21	90

Now for another entry.
Q: Request the reported Cmax associated with CN1CCc2cc(Cl)c(O)cc2[C@H]2c3cccc(-c4ccncc4)c3CC[C@@H]21
A: 43

----------
Items are presented alongside their recorded Ki.
biological target: D(1A) dopamine receptor (Homo sapiens, UniProt P21728); experiment: Displacement of [3H]SCh23390 from dopamine D1 receptor expressed in mouse LTK cells by scintillation counting
Expressed in nM, but write only the number.

The following molecules have reported results that may help.
smiles	unit	measured
CCO/N=C/c1cccc2c1CC[C@H]1[C@H]2c2cc(O)c(Cl)cc2CCN1C	nM	1.8
CN1CCc2cc(Cl)c(O)cc2[C@H]2c3cccc(-c4cccc(C#N)c4)c3CC[C@@H]21	nM	0.6
CN1CCc2cc(Cl)c(O)cc2[C@H]2c3cccc(-c4cccc([N+](=O)[O-])c4)c3CC[C@@H]21	nM	0.6

// next entry
Q: Record request: Ki value, item CN1CCc2cc(Cl)c(O)cc2[C@H]2c3cccc(/C=N/O)c3CC[C@@H]21
A: 1.6
